# study system: HLA B*07 (Homo sapiens, UniProt P01889)
# assay protocol: T2B7 binding assay (stabilization of HLA B*07 on TAP-deficient T2 cells, FACS)
# test settings: mean fluorescence index, peptide at 200 ug/ml
// map Avg. MFI 200 to label using label 0 (below 800), label 1 (800 to below 1000), label 2 (1000 or more)

For orientation, consider the following solved cases.
VPCRGQDELV [WNB7 010] | label 0
AVKDELNTLL [WNB7 004] | label 1
PETPQGLAKI [WNVB7 3403] | label 0
SPHRVPNYNL [WNB7 020] | label 2
TPGLRCLNLD [WNB7 024] | label 1
APAYSFNCLG [WNB7 005] | label 0
RPRWIDARVY [WNB7 017] | label 2
TPAAPSYTLK [WNB7 009] | label 1

Any idea which band IPAGFEPEML [WNB7 008] is in? label 2

Hi there! Could you help me figure out the category for EPPEGVKYVL [WNB7 013] please? label 0

Where would PFPESNSPIS [WNVB7 3411] land among the classes by reported Avg. MFI 200? label 0

Into which category would you place KPTGSASSLV [WNB7 015] ? label 2

Note: place this sequence into its band. Item: NPMILAAGLI [WNB7 007] label 1

Which Avg. MFI 200 category applies to GPGHEEPQLV [WNB7 011] here? label 1

Where would VPGTKIAGML [WNB7 018] land among the classes by reported Avg. MFI 200? label 2
